System: CCRF-CEM leukemia
procedure_text: NCI tumour cell line growth inhibition, 48 h; in the data active = GI50 below about 0.43 µM; inactive = the rest
In this exercise, the only acceptable responses are TRUE for active, FALSE for inactive

>>> group("COc1cc(/C=C/C(=O)c2cccc(-n3cc(-c4ccccc4)[nH]c3=O)c2)cc(OC)c1OC")
"FALSE"
>>> group("COc1ccc(-c2csc3c2-n2cccc2C3=O)cc1")
"TRUE"

[Q] Which result was noted for this compound in the test: Cc1cc(I)cc(CNCCN(C)C)c1O
[A] FALSE

[Q] Which result was noted for this compound in the test: CCN1CCN(CCC(=O)Nc2cccc(-n3cc(-c4ccncc4)c(-c4ccc(Cl)c(OC)c4)n3)c2)CC1
[A] TRUE

[Q] Which result was noted for this compound in the test: CC1(C)N=C(N)N=C(N)N1c1ccc(OCCCNC(=O)Nc2ccc(S(=O)(=O)F)cc2)c(Cl)c1
[A] TRUE

====

System: SR leukemia
procedure_text: NCI tumour cell line growth inhibition, 48 h
quantity_measured: log10 of TGI (log10 of the value in µM)
Reminder: these figures are log10 of reported TGI, in µM before transformation.

Solved cases (5 shown):
>>> value("Brc1ccc(C2=NCSC(c3ccc(Br)cc3)=N2)cc1")
1.68
>>> value("CC(=O)c1ccc(Br)cc1NC1=CC(=O)c2ncccc2C1=O")
0.78
>>> value("CN1CCN(c2cc3[nH]c4cc(O)cc(O)c4c(=O)c3cc2N)CC1")
1.32
>>> value("Cc1cc(I)cc(CNCCN(C)C)c1O")
-0.42
>>> value("O=C1NN2CC(c3ccccc3)=NN=C2c2ccccc21")
1.62

Dear colleague, could you please provide log10 of TGI for the compounds listed below?
1. Cc1cccc2cc(/C=C/C(=O)/C=C/c3ccc(Cl)cc3)c(=O)[nH]c12
2. CCCc1nnc2sc(COc3ccc(OCc4nn5c(CCC)nnc5s4)c(Cl)c3)nn12
3. Cc1c(C(Cc2ccccc2N(C)C(=O)/C=C\C(=O)O)c2c[nH]c3ccccc23)c2ccccc2n1C (configuration not stated)

[A]
[1.06, 1.81, 1.67]

[Q] What value of log10 of TGI on SR leukemia does CC(C)[Si](OC12CCC(CC1O)CC2CO)(C(C)C)C(C)C (configuration not stated) have?
[A] 1.59

====

Test system: EKVX NSCLC
procedure_text: NCI tumour cell line growth inhibition, 48 h
quantity_measured: TGI (µM)
Give bare numbers, in µM.

Solved cases (5 shown):
>>> value("NS(=O)(=O)c1ccc(NC(=S)NC(=O)Nc2ccc(Cl)c(Cl)c2)cc1")
51
>>> value("O=C1C=CC2(C=C1)O[C@H](COCc1ccccc1)[C@@H](COCc1ccccc1)O2")
3.66
>>> value("N=C(N)SCc1ccc2c(c1)S(=O)(=O)c1ccccc1O2")
35.2
>>> value("COC(=O)c1c2c(c(C)[n+]([O-])c1C)C(=O)C(NCc1ccc(OC)cc1)=CC2=O")
4.44
>>> value("C/C(=C\\C(=O)O[C@H]1[C@@H]2[C@H](C)CC[C@H]2[C@]2(C)O[C@@]1(C1CCCCC1)C[C@H]2OC(=O)CO)c1ccccc1")
12.5

Dear colleague, could you please provide TGI for the compounds listed below?
1. NS(=O)(=O)c1ccc(N(/C=C/C(=O)C(F)(F)F)CC(=O)c2ccc(F)cc2)cc1
2. CN1CCN(c2cc3[nH]c4cc(O)cc(O)c4c(=O)c3cc2N)CC1
3. O=C(CCCc1ccc(N(CCCl)CCCl)cc1)NCc1ccccc1
4. COc1cc(/C=C/C(=O)c2cccc(-n3cc(-c4ccccc4)[nH]c3=O)c2)cc(OC)c1OC

[A]
1: 87.2; 2: 87.9; 3: 91.5; 4: 11.4

====

Tested on: SK-MEL-5 melanoma
procedure_text: NCI tumour cell line growth inhibition, 48 h
quantity_measured: TGI

>>> value("Nc1ccccc1N")
"> 100 µM"

Dear colleague, could you please provide TGI for the compounds listed below?
1. CC(=O)N1C/C(=C\c2ccccc2)C(=O)/C(=C/c2ccccc2)C1
2. O=S(=O)(NCCCNc1cc(-c2cn(-c3ccccc3)nc2-c2cccc(O)c2)ccn1)c1ccc(C(F)(F)F)cc1
3. Cn1cc(C2=C(c3ccsc3)C(=O)NC2=O)c2ccccc21
4. CS(=O)(=O)OCCN(CCOS(C)(=O)=O)c1ccc(C=Nc2ccc(-c3csc(COc4ccccc4)n3)cc2)cc1

[A]
1: 12.9 µM; 2: 2.97 µM; 3: > 25 µM; 4: 23.9 µM

====

System: NCI-H23 lung
procedure_text: NCI tumour cell line growth inhibition, 48 h; in the data active means GI50 below about 0.43 µM; inactive means the rest
In this exercise, the only acceptable responses are active, inactive

>>> group("COc1cc2cc(NCc3cccc(Cl)c3)nc(C)c2cc1OC")
"inactive"
>>> group("CC1=C(CCCOC(=O)[C@H](N)CC(C)C)C2=C(C)C3(CC3)[C@@](C)(O)C(=O)C2=C1")
"active"

[Q] Which result was noted for this compound in the test: N#CC1=C(N)Oc2c(sc3c(Br)cccc23)C1c1ccc([N+](=O)[O-])cc1 (stereo not given)
[A] active

[Q] Which result was noted for this compound in the test: COc1cccc2c1nc(C(F)F)n2-c1nc(-c2ccc(NS(=O)(=O)CCN(C)C)cc2)nc(N2CCOCC2)n1
[A] active

[Q] Which result was noted for this compound in the test: Nc1ccc(/C=C/c2ccc3ncccc3c2)cc1
[A] inactive

====

I'd appreciate it if you could supply TGI values for the items below.
Test system: M14 melanoma
procedure_text: NCI tumour cell line growth inhibition, 48 h

>>> value("COc1ccc(-c2cc(N3CCN(c4ccc(Cl)cc4)CC3)c(C#N)c(=O)o2)cc1")
"> 100 µM"
>>> value("CC(=O)C1(O)CC2(c3ccccc3)C(=O)C1(c1ccccc1)C(c1ccccc1)=C2c1ccccc1 (configuration not stated)")
"> 100 µM"
>>> value("CC[C@@H]1/C=C/C=C/C[C@H](C)[C@@H](O)[C@@H](C)C(=O)[C@H](C)[C@@H](O)[C@H](C)C(=O)[C@H](C)[C@@H](O)[C@H](C)/C=C/C(=O)O[C@H]2[C@@H](C)[C@@H](CC1)O[C@@]1(CC[C@@H](C)[C@@H](CC(C)O)O1)[C@@H]2C (some centres not stated)")
"> 14.7 µM"
>>> value("CN1C2CCC1/C(=C/c1cccc3c1OCO3)C(=O)/C2=C\\c1cccc2c1OCO2")
"> 100 µM"
>>> value("CCOc1ccc(N(C)c2ccc(/C=C/C3=[N+](C)c4ccccc4C3(C)C)cc2)cc1")
"1.73 µM"

Dear colleague, could you please provide TGI for the compounds listed below?
1. CC(C)=CCC[C@@H](C)[C@H]1CC[C@@]2(C)[C@@H]3CC[C@H]4C(C)(C)[C@@H](O)CC[C@@]45C[C@@]35CC[C@]12C
2. CCOC(=O)CC1=N/C(=N/C(=N)N[N+](=O)[O-])SC1

[A]
1. > 85.1 µM
2. > 100 µM

====

Test system: DU-145 prostate
procedure_text: NCI tumour cell line growth inhibition, 48 h
I'd appreciate it if you could supply TGI values for the items below.

Solved cases (10 shown):
>>> value("Cc1ccc(S(=O)(=O)NNC(=O)Nc2cccc(C(F)(F)F)c2)cc1")
"> 100 µM"
>>> value("CC1(C)CNC(=O)C2(CCCO2)CNC(C)(C)CNC(=O)C2(CCCO2)CN1 (configuration not stated)")
"> 10 µM"
>>> value("O=C(N/N=C/c1ccc(Cl)cc1)c1ccc(NC(=O)c2ccccn2)cc1")
"> 100 µM"
>>> value("C[N+]1([O-])C2CCC1CC(OC(=O)C(CO)c1ccccc1)C2 (configuration not stated)")
"> 100 µM"
>>> value("O=c1nc2n(-c3cccc(Cl)c3)c3ccc([N+](=O)[O-])cc3cc-2c(=O)[nH]1")
"> 25 µM"
>>> value("CC[C@@H]1/C=C/C=C/C[C@H](C)[C@@H](O)[C@@H](C)C(=O)[C@H](C)[C@@H](O)[C@H](C)C(=O)[C@H](C)[C@@H](O)[C@H](C)/C=C/C(=O)O[C@H]2[C@@H](C)[C@@H](CC1)O[C@@]1(CC[C@@H](C)[C@@H](CC(C)O)O1)[C@@H]2C (some centres not stated)")
"> 11.8 µM"
>>> value("COc1cccc(OC)c1C1ON=C(c2ccccc2)N1C12CC3CC(CC(C3)C1)C2 (configuration not stated)")
"> 100 µM"
>>> value("CN1C(=O)C(c2c[nH]c3ccccc23)=C(c2c[nH]c3ccccc23)C1=O")
"> 25 µM"
>>> value("COc1cc([C@@H]2c3cc4c(cc3[C@H](OC3OC5COC(c6ccco6)OC5C(O)C3O)C3COC(=O)[C@@H]32)OCO4)cc(OC)c1OC (some centres not stated)")
"> 100 µM"
>>> value("CC(NCc1c(O)ccc2c(-c3ccccc3)cc(=O)oc12)C(=O)O (configuration not stated)")
"> 100 µM"

Dear colleague, could you please provide TGI for the molecules listed below?
1. COC(=O)C(Cc1ccccc1)NC(=O)CSc1nnc(COc2ccc(Cl)cc2)n1-c1ccccc1 (configuration not stated)
2. CCNC1=C(NC(=O)c2ccc(F)cc2)C(=O)c2ccccc2C1=O

[A]
1: > 100 µM; 2: > 100 µM
